Source listed as ChEMBL document CHEMBL3832022.

assay: Mean steady-state pharmacokinetic parameters for Estradiol evaluated after a single dose of 2 mg of Estradiol as estridiol vaginal ring; assay type: ADME, organism-based; set-up: dose 2 mg, route vaginal; conditions: human, in vivo; dose 2 mg, dosed compound id 17, dosed compound name ESTRADIOL, gender female, regimen Single dose, route vaginal, sampling time1 12 weeks, tissue Serum; read-out: Css-12w
Readout kind: concentration at 12 weeks (pg/mL)

{"columns": ["Molecule", "Measured result"],
 "data": [
  ["C[C@]12CC[C@@H]3c4ccc(O)cc4CC[C@H]3[C@@H]1CC[C@@H]2O [ESTRADIOL]", 8]
]}

---

assay: Mean steady-state pharmacokinetic parameters for Estradiol evaluated after a single dose of 2 mg of Estradiol as estridiol vaginal ring; format: ADME, organism-based; parameters: dose 2 mg, route vaginal; settings: human, in vivo, 2 mg; dosed compound id 17, dosed compound name ESTRADIOL, gender female, regimen Single dose, sampling time1 12 weeks, tissue Serum

{"columns": ["Compound", "Cmax / ng/mL"],
 "data": [
  ["C[C@]12CC[C@@H]3c4ccc(O)cc4CC[C@H]3[C@@H]1CC[C@@H]2O [ESTRADIOL]", 0.0632]
]}
